Catalogue of IC50 readings, one per entry.
- Target entity: NAMPT (human, recombinant, C-terminally His-tagged) (Homo sapiens, UniProt P43490)
- Sequence (P43490 whole entry): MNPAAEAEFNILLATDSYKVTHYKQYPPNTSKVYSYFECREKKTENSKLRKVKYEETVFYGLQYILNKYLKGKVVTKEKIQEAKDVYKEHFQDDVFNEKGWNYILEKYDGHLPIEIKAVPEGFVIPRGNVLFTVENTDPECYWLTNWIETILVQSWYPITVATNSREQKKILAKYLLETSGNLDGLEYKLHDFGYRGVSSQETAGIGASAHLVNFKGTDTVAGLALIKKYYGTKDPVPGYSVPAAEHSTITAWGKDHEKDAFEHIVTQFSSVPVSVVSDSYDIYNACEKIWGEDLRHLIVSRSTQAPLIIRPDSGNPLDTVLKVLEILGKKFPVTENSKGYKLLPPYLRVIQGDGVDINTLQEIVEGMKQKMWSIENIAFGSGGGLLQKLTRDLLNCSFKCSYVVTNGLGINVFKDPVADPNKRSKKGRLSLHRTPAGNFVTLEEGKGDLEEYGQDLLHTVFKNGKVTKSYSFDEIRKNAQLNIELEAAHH
- Assay method text: Time-Resolved Fluorescence Resonance Energy Transfer (TR-FRET) Binding Assay of NAMPT
- Test settings: without substrates; 6.8 nM NAMPT, 200 nM probe, 3 hours equilibration
Give your result in nM as a bare value.

Compound: O=C(NCc1ccc2nccn2c1)c1cnc(N(CC2CCCO2)C(=O)Cc2ccon2)s1 (centres unmarked) [Example 134]
Reported endpoint: IC50
Recorded result: 303
//
Compound: O=C(NCc1ccn2ccnc2c1)Nc1ccc(C2CCN(C(=O)c3cc(F)cc(F)c3)CC2)cc1 [Example 724]
Reported endpoint: IC50
Recorded result: 161
//
Compound: O=C(NCc1ccn2ccnc2c1)c1ccc(C2CCN(C(=O)c3ccoc3)C2)cc1 (centres unmarked) [Example 612]
Reported endpoint: IC50
Recorded result: 706
//
Compound: CC/C=C(\C)C(=O)N1CCC(c2ccc(C(=O)NCc3ccn4ccnc4c3)cc2)CC1 [Example 510]
Reported endpoint: IC50
Recorded result: 142
//
Compound: O=C(NCc1ccn2ccnc2c1)c1ccc(C2CCN(C(=O)CC(F)(F)F)CC2)cc1 [Example 504]
Reported endpoint: IC50
Recorded result: 185

[Q] Suppose we examine the compound O=C(NCc1ccc2nccn2c1)c1ccc(-c2cnn(CC3CCCOC3)c2)s1 (centres unmarked) [Example 206] ; what IC50 value has been reported?
[A] 25.7

[Q] What measured IC50 goes with O=C(NCc1ccn2ccnc2c1)c1ccc(C2CCN(S(=O)(=O)c3ccccc3)CC2)cc1 [Example 682] ?
[A] 607

[Q] Find the recorded IC50 belonging to O=C(NCc1ccn2ccnc2c1)c1ccc(C2CCN(C(=O)c3cncs3)C2)cc1 (centres unmarked) [Example 586] and report it.
[A] 842
